- test: In-vivo pharmacokinetic study on SD rats, intravenous and oral
- assay_context: rat, plasma, IV @ 1 mg/kg, read-out: Half-life period t1/2 (converted)
experimental_endpoint: half-life (h)

compound=O=C1N[C@H]2C[C@H](C2)Oc2ncc(F)cc2[C@H]2CCCN2c2nc3c1cnn3cc2F experimental_endpoint=half-life measured_value=0.33

[P] C[C@H]1Nc2nc3c(cnn3cc2F)C(=O)N[C@H]2C[C@H](C2)Oc2ncc(F)cc21
[Q] O=C1N[C@H]2C[C@H](C2)Oc2ncc(F)cc2[C@H]2CCCN2c2ccn3ncc1c3n2 (stereo in doubt) [Positive control 1, reference compound]
Between item P and item Q , which reported half-life is smaller? Write down the label of the entry you select. Q
(Q: 0.45 h, P: 5 h)

====

- test: Stability test in liver microsomes, rat
- Assay type: in vitro ADME
- assay_context: 45 min
experimental_endpoint: % Remaining(45 min) (%)

compound="C[C@H]1Nc2ccn3ncc(c3n2)C(=O)N[C@H]2C[C@H](C2)Oc2ncc(F)cc21 [Positive control 2, reference compound]" measured_value=40.95
compound="C[C@@H]1CCc2ncc(F)cc2[C@H]2CCCN2c2ccn3ncc(c3n2)C(=O)N1 [LOXO-195, reference compound]" measured_value=4.88
compound=O=C1N[C@H]2C[C@H](C2)Oc2ncc(F)cc2[C@H]2CCCN2c2nc3c1cnn3cc2F measured_value=2.37
compound=C[C@@H]1CCc2ncc(F)cc2[C@H]2CCCN2c2nc3c(cnn3cc2F)C(=O)N1 measured_value=3.30

[P] O=C1N[C@H]2C[C@H](C2)Oc2ncc(F)cc2[C@H]2CCCN2c2ccn3ncc1c3n2 (stereo in doubt) [Positive control 1, reference compound]
[Q] C[C@H]1Nc2nc3c(cnn3cc2F)C(=O)N[C@H]2C[C@H](C2)Oc2ncc(F)cc21
Between item P and item Q , which reported % Remaining(45 min) is smaller? Write down the label of the entry you select. P
(P: 9.03%, Q: 51.22%)

====

- assayed_system: TRKC(G623R) (Homo sapiens (Human), UniProt Q16288, G623R)
- Sequence (Q16288 32-839 G623R): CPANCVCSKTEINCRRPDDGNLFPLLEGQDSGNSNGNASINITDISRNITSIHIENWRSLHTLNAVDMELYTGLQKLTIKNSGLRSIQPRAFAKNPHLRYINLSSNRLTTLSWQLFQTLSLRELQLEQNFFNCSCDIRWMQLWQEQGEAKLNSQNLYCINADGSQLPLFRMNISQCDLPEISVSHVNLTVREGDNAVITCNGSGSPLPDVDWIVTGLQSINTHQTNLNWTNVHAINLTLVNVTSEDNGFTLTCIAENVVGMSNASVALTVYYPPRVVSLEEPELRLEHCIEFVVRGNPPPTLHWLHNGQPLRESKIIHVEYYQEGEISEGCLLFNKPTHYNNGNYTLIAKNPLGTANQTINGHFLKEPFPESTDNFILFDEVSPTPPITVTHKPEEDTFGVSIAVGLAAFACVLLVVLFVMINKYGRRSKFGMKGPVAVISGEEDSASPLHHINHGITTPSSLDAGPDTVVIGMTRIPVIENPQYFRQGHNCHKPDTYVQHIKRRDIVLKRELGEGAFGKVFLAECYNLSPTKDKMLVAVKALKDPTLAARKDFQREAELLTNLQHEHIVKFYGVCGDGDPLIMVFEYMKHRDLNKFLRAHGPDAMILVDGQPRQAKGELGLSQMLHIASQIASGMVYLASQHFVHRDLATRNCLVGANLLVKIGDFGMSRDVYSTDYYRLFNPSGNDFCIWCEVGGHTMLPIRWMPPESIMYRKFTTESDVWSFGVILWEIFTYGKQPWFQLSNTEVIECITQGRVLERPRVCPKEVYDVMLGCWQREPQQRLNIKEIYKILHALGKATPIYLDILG
- test: Kinase inhibitory activity (Caliper mobility shift), TRKC(G623R)
experimental_endpoint: IC50 (nM)

compound="C[C@H]1Nc2nc3c(cnn3cc2F)C(=O)N[C@H]2C[C@H](C2)Oc2ncc(F)cc21 [Example 3]" assayed_system="TRKC(G623R) (Homo sapiens (Human), UniProt Q16288, G623R)" unit_spec=nM measured_value=1.5
compound="O=C1N[C@H]2C[C@H](C2)Oc2ncc(F)cc2[C@H]2CCCN2c2nc3c1cnn3cc2F [Example 2]" assayed_system="TRKC(G623R) (Homo sapiens (Human), UniProt Q16288, G623R)" unit_spec=nM measured_value=1.8
compound="C[C@H]1Nc2ccn3ncc(c3n2)C(=O)N[C@H]2C[C@H](C2)Oc2ncc(F)cc21 [Positive control 2, reference compound]" assayed_system="TRKC(G623R) (Homo sapiens (Human), UniProt Q16288, G623R)" unit_spec=nM measured_value=1.4

====

- test: Stability test in liver microsomes, rat
- Format: in vitro ADME
- assay_context: 1 μM, 0.5 mg/mL
experimental_endpoint: half-life at 1 μM (min)

[P] O=C1N[C@H]2C[C@H](C2)Oc2ncc(F)cc2[C@H]2CCCN2c2ccn3ncc1c3n2 (stereo in doubt) [Positive control 1, reference compound]
[Q] C[C@H]1Nc2nc3c(cnn3cc2F)C(=O)N[C@H]2C[C@H](C2)Oc2ncc(F)cc21 [Example 3]
Between item P and item Q , which reported half-life at 1 μM is smaller? Write down the label of the entry you select. P
(P: 11.3 min, Q: 60.8 min)

[A] C[C@@H]1CCc2ncc(F)cc2[C@H]2CCCN2c2ccn3ncc(c3n2)C(=O)N1 [LOXO-195, reference compound]
[B] C[C@H]1Nc2ccn3ncc(c3n2)C(=O)N[C@H]2C[C@H](C2)Oc2ncc(F)cc21 [Positive control 2, reference compound]
Among A and B , which shows a numerically higher half-life at 1 μM result? Write down the label of the entry you select. B

====

Let's go through some IC50 measurements on TRKa (Homo sapiens (Human), UniProt P04629) together.
Sequence (P04629 33-796): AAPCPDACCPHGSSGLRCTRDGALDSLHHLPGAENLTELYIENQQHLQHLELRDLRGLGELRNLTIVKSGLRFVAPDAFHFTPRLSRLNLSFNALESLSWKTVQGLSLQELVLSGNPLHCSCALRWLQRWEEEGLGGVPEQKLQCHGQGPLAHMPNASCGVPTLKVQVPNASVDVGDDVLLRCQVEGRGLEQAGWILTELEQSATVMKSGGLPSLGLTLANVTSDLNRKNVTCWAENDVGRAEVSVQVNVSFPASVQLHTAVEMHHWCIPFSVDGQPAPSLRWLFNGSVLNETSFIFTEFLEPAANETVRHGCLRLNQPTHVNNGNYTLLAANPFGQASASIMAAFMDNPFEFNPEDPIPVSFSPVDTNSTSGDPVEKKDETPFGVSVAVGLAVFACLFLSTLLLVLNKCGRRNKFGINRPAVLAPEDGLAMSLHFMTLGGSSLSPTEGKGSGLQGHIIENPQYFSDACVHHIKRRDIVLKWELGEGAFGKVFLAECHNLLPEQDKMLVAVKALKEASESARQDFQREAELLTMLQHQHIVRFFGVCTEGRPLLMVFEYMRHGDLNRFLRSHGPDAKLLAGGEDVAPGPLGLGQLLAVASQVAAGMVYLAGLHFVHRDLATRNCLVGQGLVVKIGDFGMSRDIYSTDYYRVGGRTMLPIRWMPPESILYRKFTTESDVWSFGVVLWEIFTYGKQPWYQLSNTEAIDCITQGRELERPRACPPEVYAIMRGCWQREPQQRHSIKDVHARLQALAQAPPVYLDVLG
experimental_endpoint: IC50 (nM)

compound="C[C@H]1Nc2nc3c(cnn3cc2F)C(=O)N[C@H]2C[C@H](C2)Oc2ncc(F)cc21 [Example 3]" measured_value=0.36

[I] O=C1N[C@H]2C[C@H](C2)Oc2ncc(F)cc2[C@H]2CCCN2c2ccn3ncc1c3n2 (stereo in doubt) [Positive control 1, reference compound]
[II] C[C@H]1Nc2nc3c(cnn3cc2F)C(=O)NC2CC(C2)Oc2ncccc21 [Example 5]
Between item I and item II , which reported IC50 is smaller? Write down the label of the entry you select. I

====

- test: Stability test in liver microsomes, human
- Type: in vitro ADME
- assay_context: 1 μM, 0.5 mg/mL
experimental_endpoint: half-life at 1 μM (min)
Supply the numeric figure in min, leaving out any unit text.

compound="C[C@@H]1CCc2ncc(F)cc2[C@H]2CCCN2c2nc3c(cnn3cc2F)C(=O)N1 [Example 1]" experimental_endpoint="half-life at 1 μM" unit_spec=min measured_value=8.17
compound="O=C1N[C@H]2C[C@H](C2)Oc2ncc(F)cc2[C@H]2CCCN2c2nc3c1cnn3cc2F [Example 2]" experimental_endpoint="half-life at 1 μM" unit_spec=min measured_value=16.1

Shifting focus to the compound that follows.
Fill in the blank: the reported half-life at 1 μM of C[C@@H]1CCc2ncc(F)cc2[C@H]2CCCN2c2ccn3ncc(c3n2)C(=O)N1 [LOXO-195, reference compound] is ____. 16.8

====

- test: In-vivo pharmacokinetic study on SD rats, intravenous and oral
- assay_context: rat, plasma, IV @ 1 mg/kg, read-out: Concentration to peak Cmax
experimental_endpoint: Cmax (nM)

molecule="C[C@H]1Nc2ccn3ncc(c3n2)C(=O)N[C@H]2C[C@H](C2)Oc2ncc(F)cc21 [Positive control 2, reference compound]" experimental_endpoint=Cmax measured_value=781
molecule="O=C1N[C@H]2C[C@H](C2)Oc2ncc(F)cc2[C@H]2CCCN2c2nc3c1cnn3cc2F [Example 2]" experimental_endpoint=Cmax measured_value=875

[I] C[C@H]1Nc2nc3c(cnn3cc2F)C(=O)N[C@H]2C[C@H](C2)Oc2ncc(F)cc21 [Example 3]
[II] O=C1N[C@H]2C[C@H](C2)Oc2ncc(F)cc2[C@H]2CCCN2c2ccn3ncc1c3n2 (stereo in doubt) [Positive control 1, reference compound]
Between item I and item II , which reported Cmax is smaller? Write down the label of the entry you select. I

====

- test: Stability test in liver microsomes, human
- Format: in vitro ADME
- assay_context: 45 min
experimental_endpoint: % Remaining(45 min) (%)

Example entries and their recorded answers appear below.
molecule=C[C@H]1Nc2nc3c(cnn3cc2F)C(=O)N[C@H]2C[C@H](C2)Oc2ncc(F)cc21 experimental_endpoint="% Remaining(45 min)" unit_spec=% measured_value=69.89
molecule="O=C1N[C@H]2C[C@H](C2)Oc2ncc(F)cc2[C@H]2CCCN2c2ccn3ncc1c3n2 (stereo in doubt) [Positive control 1, reference compound]" experimental_endpoint="% Remaining(45 min)" unit_spec=% measured_value=12.43
molecule=O=C1N[C@H]2C[C@H](C2)Oc2ncc(F)cc2[C@H]2CCCN2c2nc3c1cnn3cc2F experimental_endpoint="% Remaining(45 min)" unit_spec=% measured_value=14.38
molecule=C[C@@H]1CCc2ncc(F)cc2[C@H]2CCCN2c2nc3c(cnn3cc2F)C(=O)N1 experimental_endpoint="% Remaining(45 min)" unit_spec=% measured_value=4.24

[I] C[C@@H]1CCc2ncc(F)cc2[C@H]2CCCN2c2ccn3ncc(c3n2)C(=O)N1 [LOXO-195, reference compound]
[II] C[C@H]1Nc2ccn3ncc(c3n2)C(=O)N[C@H]2C[C@H](C2)Oc2ncc(F)cc21 [Positive control 2, reference compound]
Among I and II , which shows a numerically higher % Remaining(45 min) result? Write down the label of the entry you select. II

====

- test: In-vivo pharmacokinetic study on SD rats, intravenous and oral
- assay_context: rat, plasma, PO @ 5 mg/kg, read-out: Area under curve AUC(0-t)
experimental_endpoint: AUC(0-t) (µg·h/mL)

molecule="O=C1N[C@H]2C[C@H](C2)Oc2ncc(F)cc2[C@H]2CCCN2c2ccn3ncc1c3n2 (stereo in doubt) [Positive control 1, reference compound]" experimental_endpoint=AUC(0-t) measured_value=2.27
molecule=O=C1N[C@H]2C[C@H](C2)Oc2ncc(F)cc2[C@H]2CCCN2c2nc3c1cnn3cc2F experimental_endpoint=AUC(0-t) measured_value=1.5

[1] C[C@H]1Nc2ccn3ncc(c3n2)C(=O)N[C@H]2C[C@H](C2)Oc2ncc(F)cc21 [Positive control 2, reference compound]
[2] C[C@H]1Nc2nc3c(cnn3cc2F)C(=O)N[C@H]2C[C@H](C2)Oc2ncc(F)cc21
Between item 1 and item 2 , which reported AUC(0-t) is smaller? Write down the label of the entry you select. 1
